Recorded values, source patent US10556944B2.

Target of assay: anti-TNFα antibody-Fab (IgG-Fab derived from anti-TNFα monoclonal antibody, adalimumab) (Homo sapiens, UniProt P01834+P01857)
Construct: cleaving a humanized monoclonal IgG formulation as a starting material into a Fab fragment and an Fc fragment by papain; purchased
Assay info: Biacore 3000 surface plasmon resonance, affinity of SpG-β1 mutants for immobilized IgG-Fab
Format: binding
Experimental parameters: Table 3, Example 4; fold of wild-type KA of the same construct type
Reported endpoint: KA Vs. Wild
Could you keep your reply to the number by itself?

[
  {
    "Substance": "Pep.2dC K13T/T18A/E19I/V21A/K28I/F30L/Y33F/V39I (TTYKLILNGKTLTGETTAIAADAATAEIVLKQFANDNGIDGEWTYDDATKTFTVTE)",
    "KA Vs. Wild": 30
  },
  {
    "Substance": "Pep.1d K10R/K13T/T18A/E19I/V21D/T25M/F30L/Y33F/N35F/D47A: SpG-β1 mutant, SEQ ID NO: 87, GST-cleaved one domain type (TTYKLILNGRTLTGETTAIADDAAMAEKVLKQFAFDNGVDGEWTYDAATKTFTVTE; SpG mutant)",
    "KA Vs. Wild": 83
  },
  {
    "Substance": "Pep.2dC K13T/E19I/V21D/T25M/F30L/Y33F/N35F/D47A (TTYKLILNGKTLTGETTTIADDAAMAEKVLKQFAFDNGVDGEWTYDAATKTFTVTE)",
    "KA Vs. Wild": 29
  }
]

Next:
Exam item: Param item = Pep.1d K13T/E19I/V21D/T25M/F30L/Y33F/N35F/D47A (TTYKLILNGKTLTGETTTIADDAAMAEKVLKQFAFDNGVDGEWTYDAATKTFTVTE) ; retrieve measured KA Vs. Wild.
Marked response: 29
